- measuredTarget: human GABA A α5 receptor (α5β3γ2) (Homo sapiens, UniProt P18507+P31644)
- Construct: membranes prepared from cell pellets
- procedureDetails: [3H]flumazenil competition binding assay, human GABA A α5β3γ2 receptors in HEK293 cells
- measurementContext: human receptors transiently transfected in HEK293; 0.5 nM [3H]flumazenil; means of two determinations; read-out: hKi GABA A α5
pKi: −log10 of the molar value.
measuredProperty: pKi

Known results for molecules:
molecule	pKi
CCCCc1noc(C)c1COc1ccc(C(=O)N[C@H](C)CO)nn1	8.15
CCCCc1noc(C)c1COc1ccc(C(=O)NC2CCOC2)nn1 (racemic)	8.16
CCCCc1noc(C)c1COc1ccc(C(=O)NC(C)CO)nn1 (stereo not drawn)	7.98
CCCCc1noc(C)c1COc1ccc(C(=O)N[C@@H](C)CO)nn1	7.76
CCCCc1noc(C)c1COc1ccc(C(=O)NC(C)C)nn1	7.89

[1] CCCCc1noc(C)c1COc1ccc(C(=O)N[C@H]2CCOC2)nn1
[2] CCCCc1noc(C)c1COc1ccc(C(=O)NC2CCOCC2)nn1
QUERY: Please indicate which has the smaller reported pKi: 1 , or 2 . // return label of chosen record
RESULT: 2

[P] CCCCc1noc(C)c1COc1ccc(C(=O)NCC(C)(C)O)nn1
[Q] CCCCc1noc(C)c1COc1ccc(C(N)=O)nn1
QUERY: Of P and Q , whose reported pKi is numerically smaller? Response format: the label of the selected entry.
RESULT: P
(P: 7.76, Q: 8.14)
